Origin of measurements: ChEMBL document CHEMBL2203128

System: Enterococcus faecalis
Experiment: Antimicrobial activity against vancomycin-sensitive Enterococcus faecalis ATCC 19433 by CLSI protocol based broth microdilution method
Type: functional
Mark each entry fulfilled if its MIC sits below 8 µg/mL, and not fulfilled for all others.

Query: Is MIC of CN[C@H](CC(C)C)C(=O)N[C@H]1C(=O)N[C@@H](CC(N)=O)C(=O)N[C@H]2C(=O)N[C@H]3C(=O)N[C@H](C(=O)N[C@H](C(=O)O)c4cc(O)cc(O)c4-c4cc3ccc4O)[C@H](O)c3ccc(c(Cl)c3)Oc3cc2cc(c3O[C@@H]2O[C@H](CO)[C@@H](O)[C@H](O)[C@H]2O[C@H]2C[C@](C)(N)[C@H](O)[C@H](C)O2)Oc2ccc(cc2Cl)[C@H]1O strictly below 8 µg/mL?
Response: fulfilled

More entries:
Query: Confirm or reject: MIC of CN(C)[C@@H]1C(O)=C(C(N)=O)C(=O)[C@@]2(O)C(O)=C3C(=O)c4c(O)cccc4[C@@](C)(O)[C@H]3C[C@@H]12 lies strictly below 8 µg/mL
Response: fulfilled

Query: Input COc1cc2c(ccc3c4ccc(OC)c(OC)c4c[n+](C)c23)c(-c2ccoc2)c1OC.[Cl-] ; condition: MIC strictly below 8 µg/mL. Does it hold?
Response: not fulfilled

Query: Regarding COc1cc2c(ccc3c4ccc(OC)c(OC)c4c[n+](C)c23)c(-c2ccccc2)c1OC.[Cl-] , kindly confirm whether its MIC is beneath 8 µg/mL.
Response: fulfilled

Query: Here's an entry: CCC[C@@H]1C[C@@H](C(=O)N[C@@H]([C@H]2O[C@H](SC)[C@H](O)[C@@H](O)[C@H]2O)[C@H](C)Cl)N(C)C1 . Is its MIC below 8 µg/mL?
Response: fulfilled
